B1: TPR 5TU (parent)
chain: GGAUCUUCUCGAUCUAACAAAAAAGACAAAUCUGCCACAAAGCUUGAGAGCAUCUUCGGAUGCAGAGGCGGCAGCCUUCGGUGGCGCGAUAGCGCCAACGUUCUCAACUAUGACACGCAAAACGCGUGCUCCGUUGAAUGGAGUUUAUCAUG

variants of: B1; experiment: polymerase ribozyme fitness, log enrichment relative to wild type (log ratio); higher = more active; in vitro selection for triplet polymerase activity
Variants at the floor of the assay were thinned out.
# if value of polymerase ribozyme fitness (log ratio) reaches -3, tag class 1; if it stays below, tag class 0

Previously resolved entries follow.
A28C G65U G68A A91U    class 0
C8U C87U    class 1
A20U C32G A40G U55G    class 0
A30U C54U C85A G128C G140U G141A    class 0
C54A G67U    class 0

Please tell me: is the variant C51U U56A at or over -3 in terms of polymerase ribozyme fitness (log ratio)? class 1

Check the entry U4A G48A C85A C93A A147C : does polymerase ribozyme fitness (log ratio) equal or exceed -3? class 0
